test system: A549; experiment: NCI tumour cell line growth inhibition, 48 h
Active and inactive are the calls of the source. No stated cut-off is given here; in the data, active = GI50 up to about 1.1 µM and inactive = higher.
Listing of recorded GI50 by entry.
Metric Name: GI50

>>> measured_result("COC(=O)CCN1CCN(CCO)CC1C (centres undefined)")
"> 10 µM (inactive)"
>>> measured_result("Cc1ncc([N+](=O)[O-])n1CCNC(=O)CCCn1cnc([N+](=O)[O-])n1")
"> 78.3 µM (inactive)"
>>> measured_result("NCCOCC(N)C(=O)O (centres undefined)")
"> 100 µM (inactive)"
>>> measured_result("CCCCCCCCCCCCCC(=O)OC1C(CO)OC(=O)C1O (centres undefined)")
"> 100 µM (inactive)"
>>> measured_result("C=C1C(C2(C)C=CC(=O)OC3(C)COC(=O)CC32)C(OC=O)C(OC(=O)C(O)C(C)CC)C2(C)C(c3ccoc3)CC(OC(C)=O)C12O (centres undefined)")
"> 100 µM (inactive)"
>>> measured_result("CC(C)(C)OC(=O)N1C(OP(=O)(Oc2ccccc2)Oc2ccccc2)=COc2cccnc21")
"46.6 µM (inactive)"
>>> measured_result("CCOC(=O)C1(O)C(=O)C2=C3C(=O)OC(C4OC(=O)c5c(c(O)c(O)c(O)c5C31)-c1c(cc(O)c(O)c1O)C(=O)OC1COC(=O)c3cc(O)c(O)c(O)c3-c3c(cc(O)c(O)c3O)C(=O)OC14)[C@@H]2O (some centres undefined)")
"15.2 µM (inactive)"
>>> measured_result("COc1ccc(-c2cc(=O)c3c(O)c(O)c(OC)cc3o2)cc1O")
"> 100 µM (inactive)"
>>> measured_result("COc1ccc2nc(-c3ccccn3)cc(O)c2c1")
"44 µM (inactive)"

---

system: SN12C; assay: NCI tumour cell line growth inhibition, 48 h
The source made the active and inactive calls. No stated cut-off is given here; in the data, active = GI50 up to about 1.1 µM and inactive = higher.
Labels: active, inactive

>>> group_label("CCCCOC(=O)NC(=O)c1cn(C2CCCCC2)c(=O)[nH]c1=O")
"inactive"
>>> group_label("CC(C)n1c2c([n+](C)c1/C=C/c1ccccc1)C(=O)c1ccccc1C2=O")
"active"
>>> group_label("COc1cc(S(=O)(=O)Nc2ccc(-c3csc(N4C(=O)C(Cl)C4c4cccc(Oc5ccccc5)c4)n3)cc2)ccc1Cl (stereo not given)")
"inactive"
>>> group_label("COc1cc(C2c3cc4c(cc3[C@@H](OCCN)[C@H]3COC(=O)C23)OCO4)cc(OC)c1O (stereo not given in full)")
"active"
>>> group_label("CCOC(=O)N1C=NC23C(c4ccccc4)C(c4ccccc4)C12C(=O)N(C)C(=O)N3C (stereo not given)")
"inactive"
>>> group_label("CC(O)CCNC(=O)Nc1c(C(F)(F)F)cc(-c2ccccc2)[nH]c1=O (stereo not given)")
"inactive"
>>> group_label("CCOC(=O)/C=C(/C(=O)OCC)n1ccc(=O)n(/C(=C/C(=O)OCC)C(=O)OCC)c1=O")
"inactive"
>>> group_label("O=c1c2c(no[n+]2[O-])c2ccccc2n1-c1ccccc1")
"inactive"
>>> group_label("CCOC12SC(Nc3ccc(C)cc3)=NN1C(=S)N(C)N=C2C (stereo not given)")
"inactive"
>>> group_label("COc1ccccc1-n1c(N)c2c(C)c(-c3ccccc3)[nH]c2nc1=S")
"inactive"

---

tested on: Malme-3M; experiment: NCI tumour cell line growth inhibition, 48 h
Calls of active or inactive are those of the source. Rule as the data show it: active = GI50 up to about 1.1 µM and inactive = higher.
Listing of recorded GI50 by entry.
Metric Name: GI50

>>> measured_result("CCOC(=O)C1C(c2ccc([N+](=O)[O-])cc2)NC(c2ccc([N+](=O)[O-])cc2)C(C(=O)OC)S1(=O)=O (stereo not drawn)")
"> 100 µM (inactive)"
>>> measured_result("CC(O)C(CO)NC(=O)C1CSSCC(NC(=O)C(N)Cc2ccccc2)C(=O)NC(Cc2ccccc2)C(=O)NC(Cc2c[nH]c3ccccc23)C(=O)NC(CCCCN)C(=O)NC(C(C)O)C(=O)N1 (stereo not drawn)")
"> 100 µM (inactive)"
>>> measured_result("Cc1cc([N+](=O)[O-])ccc1Nc1cccc(Cl)c1C")
"15.2 µM (inactive)"
>>> measured_result("CCOC(OC1=C(C#N)CCCC1)C(C)[Se]c1ccccc1 (stereo not drawn)")
"55.3 µM (inactive)"
>>> measured_result("Nc1c2cc3ccc2nc2ccc(cc12)OCCOCCOCCOCCOCCOCCO3")
"> 10 µM (inactive)"
>>> measured_result("N=C(N)NS(=O)(=O)c1ccc(Nc2c3ccccc3nc3c(C(=O)Nc4ccc(S(N)(=O)=O)cc4)cccc23)cc1")
"> 100 µM (inactive)"
>>> measured_result("CCOc1cc2c(cc1O)/C(=N/NS(=O)(=O)c1ccc(C)cc1)C[C@@H]1[C@@H]2CC[C@]2(C)[C@@H](O)CC[C@@H]12")
"7.43 µM (inactive)"
>>> measured_result("O=C(N/N=C\\c1ccc(Cl)cc1)Nc1cccc2ccccc12")
"4.24 µM (inactive)"
>>> measured_result("Cc1cn(CC2=NCC(C)(C)CN2)c(=O)[nH]c1=O")
"> 100 µM (inactive)"
>>> measured_result("O=C(O)c1cc2ccccc2c(/N=N/c2c([N+](=O)[O-])cc([N+](=O)[O-])cc2S(=O)(=O)O)c1O")
"> 100 µM (inactive)"
>>> measured_result("O=[N+]([O-])c1ccc2nc(/C(=N/Nc3ccccc3)C(O)c3ccc(Cl)cc3Cl)c(O)nc2c1 (stereo not drawn)")
"> 100 µM (inactive)"
>>> measured_result("COc1nc(C)nc2c1ncn2Cc1ccccc1")
"> 100 µM (inactive)"
>>> measured_result("CN(C)CC1=Nc2cccc3cccc(c23)N1")
"22 µM (inactive)"
>>> measured_result("C=C(C)[C@@H]1CC[C@]2(CO)CC[C@]3(C)[C@H](CC[C@@H]4[C@@]5(C)CC[C@H](O)C(C)(C)[C@@H]5CC[C@]43C)[C@@H]12")
"52.5 µM (inactive)"
>>> measured_result("O=C1CCC23CC(C=CC=C12)n1c(=O)n(-c2ccccc2)c(=O)n13 (stereo not drawn)")
"> 100 µM (inactive)"
>>> measured_result("COC(=O)C(/C(=N/NC(=O)c1ccncc1)C(=O)Nc1ccccc1OC)c1nc2ccc(Cl)cc2nc1O (stereo not drawn)")
"> 100 µM (inactive)"
>>> measured_result("C=C(C)[C@@]1(O[Si](C)(C)C)CCCC[C@@H]1CC(Sc1ccccc1)Sc1ccccc1")
"12.1 µM (inactive)"
>>> measured_result("COc1ccc2nc3cc([N+](=O)[O-])ccc3c(NNc3ccc(Cl)cc3)c2c1")
"43.2 µM (inactive)"

---

tested on: T47D; experiment: NCI tumour cell line growth inhibition, 48 h
The source made the active and inactive calls. Rule as the data show it: active = GI50 up to about 1.1 µM and inactive = higher.
Labels: yes = active, no = inactive

>>> group_label("COC(=O)c1ccc(Nc2nc3[nH]cnc3c(=O)[nH]2)cc1")
"no"
>>> group_label("C#CCCCCC#Cc1ccccc1C(=O)C=[N+]=[N-]")
"no"
>>> group_label("COC(=O)Cc1ccc(Oc2nc3ccccc3nc2-c2cccs2)cc1")
"no"
>>> group_label("COc1ccc(-c2cc(-c3cc(F)c(Cl)cc3Cl)[nH]n2)cc1OC")
"no"
>>> group_label("COc1cc(N(C)C)c(OC)cc1C=C1C=CC=C1")
"no"
>>> group_label("CC(=O)c1cc2c(Br)cccc2oc1=O")
"no"
>>> group_label("CC(C)(C)OC(=O)N1C(OP(=O)(Oc2ccccc2)Oc2ccccc2)=COc2cccnc21")
"no"
>>> group_label("CN1N=C(c2ccccc2)c2cc(Cl)ccc2N=C1N/N=C/c1ccc(N(C)C)cc1")
"no"
>>> group_label("CC(=O)c1cc(S(=O)(=O)c2ccc(O)c(C(C)=O)c2)ccc1O")
"no"
>>> group_label("c1ccc(C2=NN=C3C(c4ccccc4)=Nc4ccccc4N3C2)cc1")
"no"
>>> group_label("C=CC1ON(Cc2ccccc2)CCc2cc(OC)c(OC)cc21 (stereo not given)")
"no"
>>> group_label("CC(N/N=C(\\S)N1CCN(c2ccccn2)CC1)c1nccc2ccccc12 (stereo not given)")
"yes"
>>> group_label("c1cc(-c2ccc(-c3nc4ccc(C5=NCCN5)cc4s3)s2)ccc1C1=NCCN1")
"yes"
>>> group_label("COc1ccccc1[C@@H]1CCC2CC[C@@H](c3ccccc3OC)[N+]21Cc1ccccc1 (stereo not given in full)")
"yes"
>>> group_label("CCOP(=O)(OCC)C(c1ccccc1)N(C(=O)NC(F)(F)F)c1ccc(C)cc1 (stereo not given)")
"no"
>>> group_label("C[n+]1c2ccccc2c2/c(=C\\C#N)c3ccccc3n21")
"no"
>>> group_label("CN1CN(c2ccccc2)C2(CCNCC2)C1=O")
"no"
>>> group_label("N=C(N)NCC[C@H](NC(=O)OCCCCCn1ccc(=O)[nH]c1=O)C(=O)O")
"no"
>>> group_label("O=c1[nH]c2cc([N+](=O)[O-])c(N/N=C/c3ccc(Cl)cc3Cl)c([N+](=O)[O-])c2[nH]1")
"no"
>>> group_label("COc1cc(/C=C2\\C[C@H]3[C@@H]4CC=C5C[C@@H](N6CCCC6)CC[C@]5(C)[C@H]4CC[C@]3(C)[C@H]2O)cc(OC)c1OC")
"no"
